# System: GalNAc(b1-4)GlcNAc
# Assay protocol: glycan array binding signal (z-score within array); higher = stronger binding
# Test settings: glycan notation: IUPAC condensed, linker removed
Only a selection was taken, and the strongest signals are over-represented in it overall.
Readout kind: glycan array binding signal (z-score)
Reply with the value as a number alone.

- Binder: "Gal 2 (Canis lupus) (protein) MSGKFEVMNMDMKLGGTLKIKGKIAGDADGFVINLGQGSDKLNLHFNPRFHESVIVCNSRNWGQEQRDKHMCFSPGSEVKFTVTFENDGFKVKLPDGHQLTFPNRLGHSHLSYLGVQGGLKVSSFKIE"
  Measured value: -0.029

### Prompt Answer with the recorded glycan array binding signal (z-score) of AT1G15820(2) (Arabidopsis thaliana), Q9LMQ2 (protein) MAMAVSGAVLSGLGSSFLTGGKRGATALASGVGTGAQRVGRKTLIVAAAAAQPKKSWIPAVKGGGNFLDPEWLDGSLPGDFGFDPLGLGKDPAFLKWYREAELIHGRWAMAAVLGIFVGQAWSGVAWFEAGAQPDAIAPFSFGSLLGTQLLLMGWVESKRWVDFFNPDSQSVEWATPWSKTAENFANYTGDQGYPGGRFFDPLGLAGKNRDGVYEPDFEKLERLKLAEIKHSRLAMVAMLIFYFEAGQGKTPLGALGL only.
### Response 8.56

### Prompt Answer with the recorded glycan array binding signal (z-score) of Threefoil (Haloarcula marismortui) (protein) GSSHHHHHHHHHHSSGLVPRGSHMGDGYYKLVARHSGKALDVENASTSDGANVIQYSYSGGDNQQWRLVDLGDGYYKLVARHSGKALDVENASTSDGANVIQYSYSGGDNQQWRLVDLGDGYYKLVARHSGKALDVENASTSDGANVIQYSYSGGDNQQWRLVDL only.
### Response -0.003

### Prompt Answer with the recorded glycan array binding signal (z-score) of Drgal1 (Danio rerio) (protein) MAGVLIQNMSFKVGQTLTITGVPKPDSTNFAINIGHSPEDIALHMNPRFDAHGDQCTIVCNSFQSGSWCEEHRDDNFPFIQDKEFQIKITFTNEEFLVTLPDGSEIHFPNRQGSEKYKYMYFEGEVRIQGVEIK only.
### Response 3.67

Reference for the values: the supplement of paper PMC8728848
